assay-method-text: NOD1 signaling inhibitors, primary screen, cell-based, luminescence, uHTS (AID 1578);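 also: HEK-293T reporter cells stimulated with the NOD1 agonist gamma-tri-DAP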
applied-conditions: NOD1-driven NF-kB luciferase reporter cells, at 4 µM, active compounds read high
Hit rate of the full screen: of about 290,000 compounds, about 3,000 (1%) were called active. Shown is part of a subset that was picked to be rich in actives.
measurement-label: inhibition (%)

- compound: "COC(=O)CN1C(=S)N(c2ccc(Cl)cc2)C(=O)C1CC(=O)Nc1ccccc1 (stereo not drawn)"
  units: "%"
  meas-value: -29.4
- compound: "COc1ccc2c(c1OC)C(=O)OC2"
  units: "%"
  meas-value: 33.6
- compound: "O=C1CCCN1S(=O)(=O)c1ccc(F)cc1"
  units: "%"
  meas-value: 5.5
- compound: "COc1ccc2nc(NCCCO)[nH]c2c1"
  units: "%"
  meas-value: -28.1
- compound: "COc1ccc(-c2cc(C(=O)N3CCN(S(=O)(=O)c4ccccc4)CC3)[nH]n2)cc1"
  units: "%"
  meas-value: 4.3
- compound: "COc1cc(NC(=O)COc2ccc(-n3ccnc3)cc2)cc(OC)c1"
  units: "%"
  meas-value: 39.3
- compound: "COc1ccc2c(c1OC)C(=O)N(c1ncn[nH]1)C2"
  units: "%"
  meas-value: -15.4
- compound: "CC(C)CCn1c(O)c(N=NC(=O)c2ccco2)c2ccccc21"
  units: "%"
  meas-value: 24.4
- compound: "CCOC(=O)c1ccc(NC(=O)CSc2nc(N)c(NC(=O)c3ccc(Br)o3)c(=O)[nH]2)cc1"
  units: "%"
  meas-value: -26.5
- compound: "O=c1c2nnn(-c3cccc(F)c3)c2ncn1Cc1ccccn1"
  units: "%"
  meas-value: -4.3
- compound: "COc1ccc(OC)c(NC(=O)CSc2nncc3ccc(OC)c(OC)c23)c1"
  units: "%"
  meas-value: 1
- compound: "CC(C)(C)c1ccc(NC(=O)COc2ccc(-n3ccnc3)cc2)cc1"
  units: "%"
  meas-value: 74.6
- compound: "Cc1ccc(S(=O)(=O)N2Cc3ccccc3CC2C(=O)Nn2cnnc2)cc1 (stereo not drawn)"
  units: "%"
  meas-value: -8.2
- compound: "CC(C)(C)c1nnc(N/N=C/c2ccc(Br)cc2)n(N)c1=O"
  units: "%"
  meas-value: -33.2
- compound: "Cc1cc(=O)[nH]c(SC(C)C(=O)Nc2cccc3ccccc23)n1 (stereo not drawn)"
  units: "%"
  meas-value: -23.2
- compound: "CCOc1ccc2nc(NC(=O)CSc3nc4cccnc4n3C)sc2c1"
  units: "%"
  meas-value: -1
- compound: "Cc1nc2ccccn2c1C(=O)N=Nc1c(O)n(CCC(C)C)c2ccccc12"
  units: "%"
  meas-value: 92
- compound: "Cc1cc(C)cc(OCC(=O)Nc2ccc(CN3CCCCC3)cc2)c1"
  units: "%"
  meas-value: -37.6
- compound: "C/C(=N\\NC(=O)COc1ccc(C(C)(C)C)cc1)c1ccc(-n2ccnc2)cc1"
  units: "%"
  meas-value: -48
- compound: "COc1ccccc1N1Cc2ccc(OC)c(OC)c2C1=O"
  units: "%"
  meas-value: -5.2
- compound: "COc1ccc(CNC(=O)c2ccc(CS(=O)(=O)Cc3ccccc3F)o2)cc1"
  units: "%"
  meas-value: 6
- compound: "CC(C)(C)c1nnc(N/N=C/c2cc(Br)ccc2O)n(N)c1=O"
  units: "%"
  meas-value: 68.7
- compound: "O=C(OCCC1Oc2cccnc2NC1=O)c1ccc(Cl)cc1 (stereo not drawn)"
  units: "%"
  meas-value: -29.2
